Reported IC50 by item:
- Target Or Test System: catalytic domain of human stromelysin (MMP-3) (Homo sapiens, UniProt P08254)
- Sequence (P08254 100-272 limits assumed): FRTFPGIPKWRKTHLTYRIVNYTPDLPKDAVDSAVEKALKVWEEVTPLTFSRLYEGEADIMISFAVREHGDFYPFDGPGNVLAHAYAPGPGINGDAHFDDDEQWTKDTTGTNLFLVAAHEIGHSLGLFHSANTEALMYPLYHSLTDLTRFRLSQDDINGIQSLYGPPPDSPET
Readout Name: IC50 (nM)

>>> value_measured("O=C(NO)[C@H]1c2ccccc2CCN1S(=O)(=O)c1ccc(Oc2ccc(C(F)(F)F)cc2)cc1")
33
>>> value_measured("COc1ccc(F)c2c1[C@H](C(=O)NO)N(S(=O)(=O)c1ccc(-c3ccc(Cl)cc3)cc1)CC2")
800
>>> value_measured("O=C(NO)[C@H]1c2ccccc2CCN1S(=O)(=O)c1ccc(Oc2ccc(OCC(F)(F)F)cc2)cc1")
520
>>> value_measured("O=C(NO)[C@H]1c2ccccc2CCN1S(=O)(=O)c1ccc(Oc2ccc(Cl)cc2)nc1")
45
>>> value_measured("O=C(NO)[C@H]1c2ccccc2CCN1S(=O)(=O)c1ccc(Oc2ccc(OC(F)(F)F)cc2)nc1")
300

* * *

Reported MMP9:MMP1, selectivity of inhibition of MMP-9 in relation to MMP-1 by item:
- Target Or Test System: catalytic domain of human gelatinase-A (MMP-9) (Homo sapiens, UniProt P14780)
- Construct: Determination of the Enzymatic Activity of the Catalytic Domain of Human Gelatinase-A (MMP-9); purchased Roche, Mannheim
- Sequence (P14780 107-707 limits assumed): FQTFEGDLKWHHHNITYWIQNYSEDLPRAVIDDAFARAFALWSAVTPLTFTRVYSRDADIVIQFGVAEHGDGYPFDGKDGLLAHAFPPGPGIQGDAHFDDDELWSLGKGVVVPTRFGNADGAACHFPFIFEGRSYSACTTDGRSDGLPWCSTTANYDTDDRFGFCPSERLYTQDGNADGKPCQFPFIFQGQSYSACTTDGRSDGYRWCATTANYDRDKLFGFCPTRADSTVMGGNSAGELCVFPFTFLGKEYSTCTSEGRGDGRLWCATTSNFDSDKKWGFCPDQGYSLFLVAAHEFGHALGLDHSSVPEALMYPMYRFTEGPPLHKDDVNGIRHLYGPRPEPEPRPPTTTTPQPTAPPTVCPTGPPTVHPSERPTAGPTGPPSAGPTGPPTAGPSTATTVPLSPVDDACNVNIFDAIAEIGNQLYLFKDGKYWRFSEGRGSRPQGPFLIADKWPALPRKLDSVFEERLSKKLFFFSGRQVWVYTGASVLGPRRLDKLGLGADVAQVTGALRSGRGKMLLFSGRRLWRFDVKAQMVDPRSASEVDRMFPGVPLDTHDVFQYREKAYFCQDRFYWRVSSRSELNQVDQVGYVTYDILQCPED
- Experiment Description: Enzymatic activity of the catalytic domain of human gelatinase (MMP-9), fluorogenic substrate
- Type: biochemical
- Measurement Setup: ratio of the IC50 values of Table 4
Readout Name: MMP9:MMP1, selectivity of inhibition of MMP-9 in relation to MMP-1

>>> value_measured("O=C(NO)[C@H]1c2ccccc2CCN1S(=O)(=O)c1ccc(Oc2ccc(C(F)(F)F)cc2)cc1")
313
>>> value_measured("O=C(NO)[C@H]1c2ccccc2CCN1S(=O)(=O)c1ccc(Oc2ccc(OCC(F)(F)F)cc2)cc1")
89
>>> value_measured("O=C(NO)[C@H]1c2ccccc2CCN1S(=O)(=O)c1ccc(Oc2ccc(Cl)cc2)nc1")
667

* * *

- Target Or Test System: catalytic domain of human gelatinase-A (MMP-9) (Homo sapiens, UniProt P14780)
Readout Name: IC50 (nM)

>>> value_measured("O=C(NO)[C@H]1c2ccccc2CCN1S(=O)(=O)c1ccc(Oc2ccc(Cl)cc2)nc1")
3

* * *

- Target Or Test System: catalytic domain of human collagenase-1 (MMP-1) (Homo sapiens, UniProt P03956)
- Construct: Determination of the Enzymatic Activity of the Catalytic Domain of Human Collagenase-1 (MMP-1); purchased Biocol, Potsdam MMP1
- Sequence (P03956 100-269 limits assumed): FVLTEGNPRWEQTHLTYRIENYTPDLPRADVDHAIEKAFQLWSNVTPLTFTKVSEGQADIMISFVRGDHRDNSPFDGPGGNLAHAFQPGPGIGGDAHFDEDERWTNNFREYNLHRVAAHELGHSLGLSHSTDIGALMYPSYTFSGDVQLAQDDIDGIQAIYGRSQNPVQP
- Experiment Description: Enzymatic activity of the catalytic domain of human collagenase-1 (MMP-1), fluorogenic substrate
- Assay type: biochemical
Readout Name: IC50 (nM)

>>> value_measured("O=C(NO)[C@H]1c2ccccc2CCN1S(=O)(=O)c1ccc(Oc2ccncc2)cc1")
500
>>> value_measured("O=C(NO)[C@H]1c2ccccc2CCN1S(=O)(=O)c1ccc(Oc2ccc(Cl)cc2)cc1")
42
>>> value_measured("O=C(NO)[C@H]1c2ccccc2CCN1S(=O)(=O)c1ccc(Oc2ccc(Cl)cc2)nc1")
2000

* * *

Reported MMP9:MMP1, selectivity of inhibition of MMP-9 in relation to MMP-1 by item:
- Target Or Test System: catalytic domain of human gelatinase-A (MMP-9) (Homo sapiens)
- Construct: Determination of the Enzymatic Activity of the Catalytic Domain of Human Gelatinase-A (MMP-9); purchased Roche, Mannheim
- Experiment Description: Enzymatic activity of the catalytic domain of human gelatinase (MMP-9), fluorogenic substrate
- Type: biochemical
- Measurement Setup: ratio of the IC50 values of Table 4
Readout Name: MMP9:MMP1, selectivity of inhibition of MMP-9 in relation to MMP-1

>>> value_measured("COc1cc2c(cc1OC)[C@@H](C(=O)NO)N(S(=O)(=O)c1ccc(-c3ccc(Cl)cc3)cc1)CC2 [Compound 15]")
300
>>> value_measured("O=C(NO)[C@H]1c2ccccc2CCN1S(=O)(=O)c1ccc(Oc2ccc(Cl)cc2)cc1 [Compound 9]")
2
>>> value_measured("COc1ccc(F)c2c1[C@H](C(=O)NO)N(S(=O)(=O)c1ccc(-c3ccc(Cl)cc3)cc1)CC2 [Compound 18]")
67
>>> value_measured("O=C(NO)[C@H]1c2ccccc2CCN1S(=O)(=O)c1ccc(Oc2ccncc2)cc1 [Compound 11]")
78

* * *

- Target Or Test System: catalytic domain of human gelatinase-A (MMP-2) (Homo sapiens, UniProt P08253)
- Sequence (P08253 110-660): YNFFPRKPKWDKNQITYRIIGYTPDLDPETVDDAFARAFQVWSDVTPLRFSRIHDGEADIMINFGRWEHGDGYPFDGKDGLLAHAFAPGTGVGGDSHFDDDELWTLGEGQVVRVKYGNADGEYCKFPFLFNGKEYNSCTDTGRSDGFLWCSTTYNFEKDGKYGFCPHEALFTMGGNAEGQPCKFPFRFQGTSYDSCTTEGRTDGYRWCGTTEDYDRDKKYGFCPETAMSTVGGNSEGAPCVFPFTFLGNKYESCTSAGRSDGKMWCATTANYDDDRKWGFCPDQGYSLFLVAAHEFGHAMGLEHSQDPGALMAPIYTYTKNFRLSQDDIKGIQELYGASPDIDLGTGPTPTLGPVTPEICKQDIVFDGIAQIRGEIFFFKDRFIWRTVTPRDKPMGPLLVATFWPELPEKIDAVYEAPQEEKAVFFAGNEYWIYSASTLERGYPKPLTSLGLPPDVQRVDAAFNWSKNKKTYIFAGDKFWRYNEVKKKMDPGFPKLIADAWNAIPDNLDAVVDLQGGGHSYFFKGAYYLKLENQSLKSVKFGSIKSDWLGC
pIC50: −log10 of the molar value.
Readout Name: pIC50

>>> value_measured("O=C(NO)[C@H]1c2ccccc2CCN1S(=O)(=O)c1ccc(Oc2ccc(Cl)cc2)nc1 [Compound 45]")
8.70
>>> value_measured("O=C(NO)[C@H]1c2ccccc2CCN1S(=O)(=O)c1ccc(Oc2ccc(OC(F)(F)F)cc2)nc1 [Compound 43]")
7.64
>>> value_measured("O=C(NO)[C@H]1c2ccccc2CCN1S(=O)(=O)c1ccc(Oc2ccc(Cl)cc2)cc1 [Compound 9]")
8.70

* * *

- Target Or Test System: catalytic domain of human collagenase-3 (MMP-13) (Homo sapiens, UniProt P45452)
pIC50: −log10 of the molar value.
// label = t if pIC50 is not less than 8, otherwise f

>>> class("O=C(NO)[C@H]1c2ccccc2CCN1S(=O)(=O)c1ccc(Oc2ccc(OC(F)(F)F)cc2)nc1 [Compound 43]")
"f"
>>> class("O=C(NO)[C@H]1c2ccccc2CCN1S(=O)(=O)c1ccc(Oc2ccc(OCC(F)(F)F)cc2)cc1 [Compound 22]")
"f"
>>> class("O=C(NO)[C@H]1c2ccccc2CCN1S(=O)(=O)c1ccc(Oc2ccc(C(F)(F)F)cc2)cc1 [Compound 21]")
"t"
>>> class("O=C(NO)[C@H]1c2ccccc2CCN1S(=O)(=O)c1ccc(Oc2ccncc2)cc1 [Compound 11]")
"t"

* * *

- Target Or Test System: neutrophil collagenase (MMP-8) (Homo sapiens, UniProt P22894)
- Construct: Catalytic Domain of Human Stromelysin (MMP-3) and of Neutrophil Collagenase (MMP-8)
- Sequence (P22894 100-262 limits assumed): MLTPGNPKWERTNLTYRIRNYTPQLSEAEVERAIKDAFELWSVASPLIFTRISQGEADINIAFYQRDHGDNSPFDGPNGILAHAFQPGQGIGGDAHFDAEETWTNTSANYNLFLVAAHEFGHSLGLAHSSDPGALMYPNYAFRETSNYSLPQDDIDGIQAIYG
- Experiment Description: Enzymatic activity of the catalytic domain of neutrophil collagenase (MMP-8), fluorogenic substrate
Readout Name: log10(IC50) (log10 of the value in nM)

>>> value_measured("O=C(NO)[C@H]1c2ccccc2CCN1S(=O)(=O)c1ccc(Oc2ccc(OC(F)(F)F)cc2)nc1 [Compound 43]")
1.48
>>> value_measured("O=C(NO)[C@H]1c2ccccc2CCN1S(=O)(=O)c1ccc(Oc2ccncc2)cc1 [Compound 11]")
0.48
>>> value_measured("COc1cc2c(cc1OC)[C@@H](C(=O)NO)N(S(=O)(=O)c1ccc(-c3ccc(Cl)cc3)cc1)CC2 [Compound 15]")
0.30
>>> value_measured("O=C(NO)[C@H]1c2ccccc2CCN1S(=O)(=O)c1ccc(Oc2ccc(Cl)cc2)cc1 [Compound 9]")
0.34
>>> value_measured("COc1ccc(F)c2c1[C@H](C(=O)NO)N(S(=O)(=O)c1ccc(-c3ccc(Cl)cc3)cc1)CC2 [Compound 18]")
1.15
>>> value_measured("O=C(NO)[C@H]1c2ccccc2CCN1S(=O)(=O)c1ccc(Oc2ccc(C(F)(F)F)cc2)cc1 [Compound 21]")
0.51
>>> value_measured("O=C(NO)[C@H]1c2ccccc2CCN1S(=O)(=O)c1ccc(Oc2ccc(OCC(F)(F)F)cc2)cc1 [Compound 22]")
2.04
>>> value_measured("O=C(NO)[C@H]1c2ccccc2CCN1S(=O)(=O)c1ccc(Oc2ccc(Cl)cc2)nc1 [Compound 45]")
0.95
